- EXPERIMENTAL_TARGET: Bombesin receptor subtype-3 (Mus musculus, UniProt O54798)
- Sequence (O54798 whole entry): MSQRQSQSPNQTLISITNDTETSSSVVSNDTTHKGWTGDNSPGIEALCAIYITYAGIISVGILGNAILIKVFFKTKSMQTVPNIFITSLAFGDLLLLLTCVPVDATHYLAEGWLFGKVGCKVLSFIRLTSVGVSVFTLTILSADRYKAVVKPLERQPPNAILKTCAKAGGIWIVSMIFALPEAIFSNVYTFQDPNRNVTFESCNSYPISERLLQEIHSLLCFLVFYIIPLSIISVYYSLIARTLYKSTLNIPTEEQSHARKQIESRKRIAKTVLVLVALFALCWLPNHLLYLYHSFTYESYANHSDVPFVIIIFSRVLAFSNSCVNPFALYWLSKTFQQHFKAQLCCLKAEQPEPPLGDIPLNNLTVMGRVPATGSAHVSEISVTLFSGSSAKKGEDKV
- RUN_DESCRIPTION: Agonist activity at mouse BRS3 by functional assay
pEC50: −log10 of the molar value.
PARAMETER: pEC50

Some compounds with known pEC50 results, for comparison:
# COMPOUND, EXPERIMENTAL_TARGET, pEC50
data = [
    ("CC(C)(C)CC(C)(C)NC(=O)NS(=O)(=O)c1cnccc1N[C@@H]1C[C@H]2CC[C@@H]1C2 (racemic)", "Bombesin receptor subtype-3 (Mus musculus, UniProt O54798)", 7.00),
    ("CC(C)NC(=O)NS(=O)(=O)c1cnccc1N[C@@H]1C[C@H]2CC[C@@H]1C2 (racemic)", "Bombesin receptor subtype-3 (Mus musculus, UniProt O54798)", 7.07),
    ("CC(C)(C)c1cc(NS(=O)(=O)c2cnccc2N[C@@H]2C[C@H]3CC[C@@H]2C3)[nH]n1 (racemic)", "Bombesin receptor subtype-3 (Mus musculus, UniProt O54798)", 6.57),
    ("CC(C)(C)c1csc(NS(=O)(=O)c2cnccc2N[C@@H]2C[C@H]3CC[C@@H]2C3)n1 (racemic)", "Bombesin receptor subtype-3 (Mus musculus, UniProt O54798)", 6.70),
    ("CC(C)(C)NC(=O)NS(=O)(=O)c1cnccc1N[C@@H]1C[C@H]2CC[C@@H]1C2 (racemic)", "Bombesin receptor subtype-3 (Mus musculus, UniProt O54798)", 7.55),
    ("CC(C)(C)NC(=O)NS(=O)(=O)c1ccccc1N[C@@H]1C[C@H]2CC[C@@H]1C2 (racemic)", "Bombesin receptor subtype-3 (Mus musculus, UniProt O54798)", 6.47),
]

P: CC(C)(C)NC(=O)NS(=O)(=O)c1cnccc1N[C@@H]1C[C@H]2CC[C@]1(C)C2(C)C
Q: CC(C)(C)NC(=O)NS(=O)(=O)c1cnccc1O[C@@H]1C[C@H]2CC[C@@H]1C2 (racemic)
R: O=S(=O)(Nc1nnc(C2CCC2)[nH]1)c1cnccc1N[C@@H]1C[C@H]2CC[C@@H]1C2 (racemic)
Task item: Please list the entries, largest pEC50 first. A ranking is expressed here by listing the labels in the requested order.
Reply: P, R, Q
(P: 7.05, R: 6.77, Q: 6.49)

I: CC(C)(C)NC(=N)NS(=O)(=O)c1cnccc1N[C@@H]1C[C@H]2CC[C@@H]1C2 (racemic)
II: CC(C)(C)NC(=O)NS(=O)(=O)c1cnccc1N[C@H]1C[C@H]2CC[C@]1(C)C2(C)C
Task item: Select the item with the higher value of pEC50 from the options I and II listed. State your choice using its label.
Reply: II

Origin of the recorded values: ChEMBL document CHEMBL1759937
